# Target: BTK in mouse bone marrow (Mus musculus (Mouse), UniProt P35991)
# Sequence (P35991 whole entry): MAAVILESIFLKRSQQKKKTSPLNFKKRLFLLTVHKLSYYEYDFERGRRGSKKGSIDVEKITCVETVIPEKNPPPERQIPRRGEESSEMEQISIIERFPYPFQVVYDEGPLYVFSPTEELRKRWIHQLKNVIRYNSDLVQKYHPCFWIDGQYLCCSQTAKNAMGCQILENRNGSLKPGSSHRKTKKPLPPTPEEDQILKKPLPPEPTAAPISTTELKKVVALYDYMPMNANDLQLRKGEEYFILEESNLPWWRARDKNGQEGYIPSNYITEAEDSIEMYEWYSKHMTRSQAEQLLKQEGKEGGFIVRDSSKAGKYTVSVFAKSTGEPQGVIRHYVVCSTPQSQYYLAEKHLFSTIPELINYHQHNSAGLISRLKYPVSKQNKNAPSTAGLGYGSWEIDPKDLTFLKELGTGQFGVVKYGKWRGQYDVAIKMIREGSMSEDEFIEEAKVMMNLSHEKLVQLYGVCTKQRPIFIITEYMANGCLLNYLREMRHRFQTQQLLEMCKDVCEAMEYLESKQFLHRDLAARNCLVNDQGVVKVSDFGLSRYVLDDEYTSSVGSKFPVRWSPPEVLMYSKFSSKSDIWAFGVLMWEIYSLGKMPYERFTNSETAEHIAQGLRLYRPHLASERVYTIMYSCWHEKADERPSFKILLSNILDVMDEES
# Protocol text: Mouse Bone Marrow Assay (MSD ELISA of BTK degradation in mouse bone marrow)
# Format: in vivo
# Setup conditions: female C57BL/6J mice, single dose of Dose A, bone marrow collected after 24 hours, % remaining BTK in vehicle versus treated samples
Quantity kind: Mouse Bone Marrow (%), % remaining BTK

[
  {
    "Chem smiles": "Cc1cc(-c2cc(Nc3ccc(N4CCN(CCc5ccc(N6CCC(=O)NC6=O)cc5)CC4)cn3)ncn2)c(F)cc1[C@@H](C)NC(=O)c1nc(C(C)(C)C)no1",
    "Unit tag": "%",
    "Mouse Bone Marrow (%), % remaining BTK": 17
  }
]

P = Cc1cc(-c2cc(Nc3ccc(N4CCN(CCc5ccc(N6CCC(=O)NC6=O)cc5)CC4(C)C)cn3)ncn2)ccc1[C@@H](C)NC(=O)c1nc(C(C)(C)C)no1
Q = C[C@@H](NC(=O)c1nc(C(C)(C)C)no1)c1ccc(-c2cc(Nc3ccc(N4CCN(CCc5ccc(N6CCC(=O)NC6=O)cc5)C[C@@H]4C)cn3)ncn2)cc1Cl
// task: argmin of Mouse Bone Marrow (%), % remaining BTK over [ P , Q ] In your reply, give the label of the chosen option.
Q

1 = Cc1cc(-c2cc(Nc3ccc(N4CCN(CCc5ccc(N6CCC(=O)NC6=O)cc5)C[C@@H]4C)cc3)ncn2)ccc1[C@@H](C)NC(=O)c1nc(C(C)(C)C)no1
2 = Cc1cc(-c2cc(Nc3ccc(N4CCN(CCc5ccc(N6CCC(=O)NC6=O)cc5)C[C@H]4C)cn3)ncn2)ccc1[C@@H](C)NC(=O)c1nc(C(C)(C)C)no1
Compare the recorded Mouse Bone Marrow (%), % remaining BTK of 1 and 2 ; state which is larger. In your reply, give the label of the chosen option.
1
